# TEST_NAME: qHTS Assay for Rab9 Promoter Activators; note: nearly all actives have a fitted effect of over 60% in size
# STUDY_CONDITIONS: Huh7 Rab9 promoter-luciferase reporter, luminescence, 24 h; series mostly up to 9.22 µM
Screen size: about 320,000 compounds; about 9,100 (2.8%) were called active. Roughly 3% stayed inconclusive and do not appear here. Calls come from the whole dose curve; as a rule, active = well fitted activation curve with a large enough effect; inconclusive = small, poorly fitted or top-dose-only effect; inactive = no such curve, though single readings can be large or run the other way. Only a selection was taken, and actives are over-represented in it overall.
Field 'call' accepts active, inactive

See these solved cases before continuing.
N#CC(=C1CCCC1)c1nc(-c2ccc(Cl)cc2)cs1; active
Brc1ccccc1/C=N/Nc1nc2ccccc2o1; active

QUERY: What did this assay record as the result for `C=CCc1c(C)nc2cc(-c3ccccc3)[nH]n2c1=O` ?
RESULT: active

QUERY: # lookup: test call for `O=c1[nH]c2cccnc2n(CCNc2ncc(C(F)(F)F)cc2Cl)c1=O`
RESULT: inactive

QUERY: Record request — test call for `Cc1nc(-c2ccc(NC(=O)c3cccs3)cc2)cs1`
RESULT: active

QUERY: So what was the verdict on `COc1ccc(S(=O)(=O)Nc2cc(C)on2)cc1NC(C)=O` in this test?
RESULT: inactive

QUERY: # fetch the recorded call for `Cc1ccc(-c2csc(NC(=O)Cn3[nH]c(=O)c4ccccc4c3=O)n2)cc1` here
RESULT: inactive

QUERY: In this assay, the call recorded for `O=C(COC(=O)CNC(=O)C1CCCCC1)Nc1cccc(F)c1` was what?
RESULT: inactive

QUERY: Which outcome did this test record for the compound `CCCc1ccc(-c2csc(NC(=O)Cc3cccs3)n2)cc1` ?
RESULT: inactive

====

# TEST_NAME: qHTS Assay for Rab9 Promoter Activators; note: nearly all actives have a fitted effect of over 60% in size
# STUDY_CONDITIONS: Huh7 Rab9 promoter-luciferase reporter, luminescence, 24 h; series mostly up to 9.22 µM
Screen size: about 320,000 compounds; about 9,100 (2.8%) were called active. Not shown: some 3% with an inconclusive outcome. Calls come from the whole dose curve; as a rule, active = well fitted activation curve with a large enough effect; inconclusive = small, poorly fitted or top-dose-only effect; inactive = no such curve, though single readings can be large or run the other way. The list comes from a sample in which actives are over-represented; it also holds close analogues and randomly drawn compounds.
Select the correct class. Options are active, inactive and nothing else.

O=C(Cn1ncc(N2CCCC2)c(Br)c1=O)c1ccc(Cl)cc1; active
CCc1ccc(NC(=O)N2CCc3ccccc3C2)cc1; active
CC(C)N(Cc1nnc(-c2ccccc2Br)o1)C(=O)c1cc(Cl)nc2ccccc12; inactive
O=C(C(=O)N1CCc2ccccc2C1)N1CCc2ccccc2C1; inactive

Kindly review the next molecule as well.
QUERY: Look up the recorded call for `CC(=O)Cn1ncc(N2CCOCC2)c(Br)c1=O` in this test.
RESULT: inactive

====

# TEST_NAME: qHTS Assay for Rab9 Promoter Activators; note: nearly all actives have a fitted effect of over 60% in size
# STUDY_CONDITIONS: Huh7 Rab9 promoter-luciferase reporter, luminescence, 24 h; series mostly up to 9.22 µM
About 9,100 (2.8%) of roughly 320,000 compounds were called active. Another 3% or so got no clear call; they are omitted. Calls follow the shape of the dose curve; as a rule, active = well fitted activation curve with a large enough effect; inconclusive = small, poorly fitted or top-dose-only effect; inactive = no such curve, though single readings can be large or run the other way. The sample holds actives, similar compounds and a random draw of the others, so the mix is not that of the screen.
Please reply with one of these outcomes: active, inactive

COc1ccc(/C(C)=N/Nc2cc(C(F)(F)F)ccc2Cl)c(OC)c1; inactive

QUERY: Can you look up the reported call for `O=C(O)c1ccc(N=NN2CCOCC2)cc1` for me?
RESULT: inactive

QUERY: Hi, sorry to bother you, what did the test record for `Cc1ccc(Nc2nc(-c3ccc(O)cc3O)cs2)nc1` ?
RESULT: active

QUERY: Outcome logged for `O=C(COC(=O)c1ccc(O)cc1O)NNC(=O)c1cccs1` in this assay:
RESULT: inactive

QUERY: For `CC(=O)Nc1ccc(C(=O)Nc2nc(-c3cc(C)n(Cc4ccccc4)c3C)cs2)cc1` , which call appears in the assay record?
RESULT: inactive

QUERY: How was `CC1(C)CC(=O)C=C(c2cccc3c2Oc2ccccc2S3)C1` classified in this test?
RESULT: inactive

====

# TEST_NAME: qHTS Assay for Rab9 Promoter Activators; note: nearly all actives have a fitted effect of over 60% in size
# STUDY_CONDITIONS: Huh7 Rab9 promoter-luciferase reporter, luminescence, 24 h; series mostly up to 9.22 µM
Hit rate of the full screen: of about 320,000 compounds, about 9,100 (2.8%) were called active. About 3% were inconclusive and are not listed. Calls follow the shape of the dose curve; as a rule, active = well fitted activation curve with a large enough effect; inconclusive = small, poorly fitted or top-dose-only effect; inactive = no such curve, though single readings can be large or run the other way. For the sample, actives were picked, then their nearest neighbours and some compounds at random.
Parameter call: string, one of active, inactive

// known answers, use as guide
O=C(CCNS(=O)(=O)c1ccccc1)NCCSc1ccc(Br)cc1; inactive
Cc1ccc(OS(=O)Nc2cccc3nccnc23)cc1 (stereo not given); inactive
CCOC(=O)c1cc(C(C)C)sc1NC(=O)COC(=O)c1nccnc1N; inactive

QUERY: How did this test come out for `O=C(Nc1ccc(-c2csc(Nc3cccc(C(F)(F)F)c3)n2)cc1)c1cccc(C(F)(F)F)c1` ?
RESULT: inactive

QUERY: Hi, sorry to bother you, what did the test record for `NNC(=O)c1cccc(COCC(F)(F)C(F)F)c1` ?
RESULT: inactive

QUERY: // outcome(item) with item = `C/C(=N\NC(=O)C(N)=O)c1ccc2c(c1)OCCO2`
RESULT: inactive

QUERY: Assay outcome for `CCc1cccc(NC(=O)COC(=O)c2cc(=O)c3ccccc3o2)c1` : what was it?
RESULT: inactive

QUERY: What did this assay record as the result for `CCOC(=O)N1CCC(NC(=O)c2cnn3ccccc23)CC1` ?
RESULT: inactive

====

# TEST_NAME: qHTS Assay for Rab9 Promoter Activators; note: nearly all actives have a fitted effect of over 60% in size
# STUDY_CONDITIONS: Huh7 Rab9 promoter-luciferase reporter, luminescence, 24 h; series mostly up to 9.22 µM
Screen size: about 320,000 compounds; about 9,100 (2.8%) were called active. Roughly 3% stayed inconclusive and do not appear here. The call rests on the fitted dose curve; in most records, active means well fitted activation curve with a large enough effect; inconclusive means small, poorly fitted or top-dose-only effect; inactive means no such curve, though single readings can be large or run the other way. This excerpt belongs to a sample that is enriched for actives.
Parameter call: string, one of active, inactive

Use these answered entries as a reference point.
S=C(NCc1cccnc1)Nc1ccc(Cl)cc1Cl; inactive
CC1CCN(C(=O)COC(=O)CCC(=O)c2cccs2)CC1; inactive

QUERY: Status in this test for `CCOc1cc(/C=C/C(=O)OCC(=O)NCCN2C(=O)CSC2=O)ccc1OCC(C)C` ?
RESULT: inactive

QUERY: Entry `O=C(NC(=S)Nc1ccc(Cl)cc1Cl)C1CC1` : call = ?
RESULT: active

QUERY: Test call for this molecule, please: `Cc1cccn2c(=O)nc(SCC(=O)NCc3ccccc3Cl)nc12`
RESULT: inactive

QUERY: Which outcome was entered for the molecule `CC(C)(C)c1csc(NC2=NS(=O)(=O)c3ccccc32)n1` in this test?
RESULT: active

QUERY: Short answer needed: outcome of this test for `Cc1nc(-c2ccccc2)sc1C(=O)/C=C/N(C)C` ?
RESULT: active

QUERY: // param item: `CN1CCN(S(=O)(=O)c2ccc(NC(=S)NC(=O)C3CC3)cc2)CC1` ; yields the recorded call
RESULT: inactive

QUERY: // param item: `CC(=O)/C(C)=N/O` ; yields the recorded call
RESULT: inactive

QUERY: I would be grateful if you could indicate the recorded call for `O=C(NCCc1ccccc1)c1ccc2c(c1)N(Cc1ccccc1)CCS2` .
RESULT: inactive

====

# TEST_NAME: qHTS Assay for Rab9 Promoter Activators; note: nearly all actives have a fitted effect of over 60% in size; note: potency is the fitted concentration of half-maximal effect
# STUDY_CONDITIONS: Huh7 Rab9 promoter-luciferase reporter, luminescence, 24 h; series mostly up to 9.22 µM
The campaign covered roughly 320,000 compounds. About 9,100 (2.8%) were called active. Another 3% or so got no clear call; they are omitted. What follows is part of a selection rich in actives, with near analogues and random picks from the rest.
MEASUREMENT_LABEL: Potency

Would you please look over these solved cases?
COc1ccccc1N1CCN(CC(=O)Nc2ccnn2C2CCCC2)CC1; inactive
Cn1c(CC(=O)NNC(=O)c2ccccc2F)nc2ccccc21; inactive
CC(C)OC(=O)c1sc2nc3c(cc2c1N)C(=O)CCC3; 3550 nM (active)
CCCCn1c(N)c(N(CCC(C)C)C(=O)COC(=O)c2cccnc2OCC)c(=O)[nH]c1=O; inactive
COc1cc(SC)ccc1C(=O)N(Cc1ccccc1)c1ccccc1; inactive

Report Potency for each item below.
1. CCN(CC)S(=O)(=O)c1ccc(-c2cn3ccc(C)cc3n2)cc1
2. COc1ccc(CN2CCN(C(=O)c3cc(C4CC4)nn3-c3ccccc3)CC2)cc1F
3. Cc1ncc(CO)c(/C=N/NC(=O)c2cccc(S(=O)(=O)N3CCCC3)c2)c1O
4. COc1ccc2nc(NC(=O)NC3CCCCC3)sc2c1
5. CCn1c(SCC(=O)Nc2nc3ccc(OC)cc3s2)nnc1-c1ccoc1C
6. COc1cc(SC)ccc1C(=O)NCCOc1ccccc1Cl

RESULT:
2240 nM (active)
inactive
inactive
2000 nM (active)
inactive
3980 nM (active)

====

# TEST_NAME: qHTS Assay for Rab9 Promoter Activators; note: nearly all actives have a fitted effect of over 60% in size
# STUDY_CONDITIONS: Huh7 Rab9 promoter-luciferase reporter, luminescence, 24 h; series mostly up to 9.22 µM
Among all 320,000 compounds or so, about 9,100 (2.8%) were called active. Roughly 3% stayed inconclusive and do not appear here. The call rests on the fitted dose curve; in most records, active means well fitted activation curve with a large enough effect; inconclusive means small, poorly fitted or top-dose-only effect; inactive means no such curve, though single readings can be large or run the other way. The entries come from a sample that favours actives as a whole.
Entry note: the call must match one of YES = active, NO = inactive

Example results:
O=C(COC(=O)c1cccc(Cl)c1)NC1CCCCCCC1; NO
COc1ccc(-c2nnc(SC(C)C(=O)NC3CC3)o2)cc1 (stereo unspecified); NO
COc1ccc(S(=O)(=O)N2CCOCC2)cc1NC(=O)CSc1cc(C)ccc1C; NO

QUERY: Test call, this molecule: `CCCNC(=O)c1c(Cl)cnn1-c1ccc(C)cc1`
RESULT: YES

QUERY: Short answer needed: outcome of this test for `CN(C)c1nc(-c2cccnc2)nc(-c2ccc(Cl)cc2)c1C#N` ?
RESULT: NO

QUERY: Can you look up the reported call for `O=C(c1ccc(Cl)c(S(=O)(=O)N2CCCCCC2)c1)N1CCN(c2ccc(O)cc2)CC1` for me?
RESULT: NO

QUERY: Identify the outcome logged in this assay for the molecule shown: `N/C(=N\OC(=O)c1cc(-c2ccccc2)nc2ccccc12)c1ccncc1`
RESULT: NO

QUERY: Please let me know the test result on file for `O=C(Cc1cccs1)NCc1cccc(C(F)(F)F)c1` .
RESULT: YES

QUERY: Which outcome was assigned to Cc1ccc(C(=O)CN2C(=O)NC3(CCOc4ccccc43)C2=O)s1 (stereo unspecified) in this test?
RESULT: NO

QUERY: Per the records of this test, what outcome belongs to `COc1ccc(OC)c(/C=C/C(=O)c2ccc3c(c2)OCO3)c1` ?
RESULT: NO

QUERY: Record request — test call for `CCCNC(=O)CCc1c(C)nc2c(c(C)nn2-c2ccc(C)cc2)c1C`
RESULT: NO

QUERY: # outcome recorded in this test, key = `O=C(Nc1nnc(-c2ccco2)o1)c1ccc(S(=O)(=O)N2CCOCC2)cc1`
RESULT: NO

QUERY: How did this test come out for `O=C(CCC(=O)c1ccccc1)NCc1cccc(C(F)(F)F)c1` ?
RESULT: NO

QUERY: In this assay, the call recorded for `CCCCCc1c(C)nc(N2CCN(Cc3ccc4c(c3)OCO4)CC2)[nH]c1=O` was what?
RESULT: NO

QUERY: Please indicate how the test categorized `O=C(O)c1ccc(N/N=C/c2cn(-c3ccccc3)nc2-c2cccs2)cc1` .
RESULT: YES

QUERY: Which result was noted for this molecule in the test: `Cc1ccc(C(=O)Oc2coc(CSc3nnc(NC(=O)c4cccs4)s3)cc2=O)cc1C`
RESULT: NO
